target: human Y4 receptor (human, UniProt P50391 1-375); test: 125I-PP displacement
Sequence (P50391 whole entry): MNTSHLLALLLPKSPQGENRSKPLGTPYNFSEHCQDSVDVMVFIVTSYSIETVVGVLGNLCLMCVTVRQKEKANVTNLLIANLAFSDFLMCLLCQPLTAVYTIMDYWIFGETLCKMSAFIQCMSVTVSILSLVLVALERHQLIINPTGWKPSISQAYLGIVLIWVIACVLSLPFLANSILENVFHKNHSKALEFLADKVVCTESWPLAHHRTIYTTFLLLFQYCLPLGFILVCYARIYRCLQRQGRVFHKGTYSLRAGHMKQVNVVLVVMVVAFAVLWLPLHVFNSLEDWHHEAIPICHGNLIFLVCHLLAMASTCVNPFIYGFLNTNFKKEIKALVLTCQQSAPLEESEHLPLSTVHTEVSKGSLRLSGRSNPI
endpoint: IC50 (nM)

[a] PAPLEPVYPGDNATPEQMAQYAAALRRYINKLTRPRY [7217]
[b] PAPLEPFYPGDNATPEQMAHYAADLRRYINTLTRPRY [7143]
[c] AAPLEPVYPGDNATPEELVKYYSALRRYINLLTRPRY [7112]
In: Sort ascending by IC50. Answer by naming the labels in the order asked.
Out: a, c, b
(a: 0.066 nM, c: 0.095 nM, b: 0.188 nM)
